System: TK-10 renal
assay: NCI-60 one-dose screen, 48 h
experimental-setup: 10 µM unless noted
This is part of a sample that, as a whole, favours compounds with a hit. Of some 83,000 tested, about 20% had one in any assay. Active and inactive are the calls of the source. How the source made its calls: active means growth percent below 10; inactive means the rest.
Would you mind answering with one of these outcomes? active, inactive

NC(=O)CC(NC(=O)COc1ccc(Cl)cc1Cl)C(=O)O (stereo unspecified)	inactive
COc1ccc(C2C3(C#N)C(N)=NC(=C(C#N)C#N)C23C#N)cc1OC (stereo unspecified)	inactive
CC(=O)CC(=O)OC/C=C(/C)CCC=C(C)C	inactive
O=S(=O)(O)c1ccc2c(c1)Sc1cc(S(=O)(=O)O)ccc1O2	inactive
CC(=N\N=C(N)N)/C(=N/N=C(N)N)c1ccccc1	inactive
COc1cc(/C(=C2/O[C@@H]([C@H]3COC(C)(C)O3)[C@H]3OC(C)(C)O[C@@H]23)c2ccc3c(c2)OCO3)cc(OC)c1OC	inactive
O=c1c2c(c3ccccc3n1-c1ccccc1)NC(=S)NC2c1ccc(Cl)cc1 (stereo unspecified)	inactive
COc1ccc(C2CC(=O)c3c(O)cc(OC4OC(COC5OC(C)C(O)C(O)C5O)C(O)C(O)C4O)cc3O2)cc1O (stereo unspecified)	inactive

Problem: Just curious, what result did "CCCNC(=O)Oc1ccc(/C(=C(/CC)Cc2ccccc2)c2ccc(OCCN(CC)CC)cc2)cc1" get here?
Solution: inactive

Problem: Here is the next compound: CC1Cc2cc(F)ccc2-n2cccc21 (stereo unspecified)
Solution: inactive

Problem: Here is the next compound: "COC(=O)c1cc(Nc2ccc(O)c3c2C(=O)c2c([N+](=O)[O-])ccc(O)c2C3=O)cc(C(=O)OC)c1"
Solution: inactive

Problem: Here is the next compound: "Cc1nc(NC(=O)NC2CCCCC2)sc1C(=O)NN"
Solution: active

Problem: Here is the next compound: "COc1ccc2cn3c4ccc(O)cc4[nH]c(=O)c3c2c1"
Solution: active

###

System: NCI-H460 lung
assay: NCI-60 one-dose screen, 48 h
experimental-setup: 10 µM unless noted
About 83,000 compounds went through this panel and 20% of them were active in at least one assay; those are over-represented in the sample as a whole. The source made the active and inactive calls. The calls were made as follows: active = growth percent below 10; inactive = the rest.
Would you mind answering with one of these outcomes? active, inactive

Br/C(=N\Nc1nn[nH]n1)c1ccccc1	inactive
CC(=O)OC1/C=C\CC/C=C\C1 (stereo not given)	inactive
COc1cc2ncnc(-n3ncc4cc(NC(=O)Nc5ccccc5)ccc43)c2cc1OC	inactive
O=C(/C=C/c1ccc(Br)cc1)c1ccccc1	inactive
CCC(CCCN1C(=O)c2ccccc2C1=O)Nc1cc(OC)cc2cccnc12 (stereo not given)	inactive

Problem: Just curious, what result did "COc1cc(-c2nn(-c3ccc(NC(=O)Nc4ccc(Cl)c(C(F)(F)F)c4)cc3)cc2-c2ccncc2)ccc1Cl" get here?
Solution: active

Problem: Here is the next compound: "Cc1nn(-c2ccccc2)c(N)c1N=C1NC(=O)/C(=C/c2ccc(Cl)cc2)S1"
Solution: inactive

Problem: Here is the next compound: "CC(=O)Nc1nc(C)c(C(=O)N/N=C/N2CCOCC2)s1"
Solution: inactive

Problem: Here is the next compound: "COc1ccc(CN2C(=O)/C(=C\C(=O)c3ccc(OCCN4CCCCC4)cc3)c3ccccc32)cc1"
Solution: inactive

Problem: Here is the next compound: "COC(=O)[C@H](Cc1cn(C)cn1)NC(=O)[C@H](CC(=O)OCc1ccccc1)NC(=O)Nc1cc(C(F)(F)F)cc(C(F)(F)F)c1"
Solution: active

###

Test system: NCI-H226 lung
assay: NCI-60 one-dose screen, 48 h
experimental-setup: 10 µM unless noted
Compounds without any hit were thinned out: in the full panel of roughly 83,000, 20% have a hit. Active and inactive are the calls of the source. Rule for the calls: active = growth percent below 10; inactive = the rest.
Would you mind answering with one of these outcomes? 1.0 for active, 0.0 for inactive

Some entries whose results are on file:
CCCCS(=O)(=O)c1cc(Nc2ccc(O)c3c2C(=O)c2ccccc2C3=O)ccc1C	0.0
O=c1oc2ccc3ccccc3c2cc1-c1ccnc2[nH]c(=S)[nH]c(=O)c12	0.0
[N-]=[N+]=Nc1ncc(-c2ccc(C(F)(F)F)cc2)c(NC2CCCCCC2)n1	0.0
COc1ccc(C(=O)c2no[n+]([O-])c2C(=O)c2ccc(OC)cc2)cc1	0.0

Problem: Just curious, what result did CC1(c2ccc(Br)cc2)NC(=O)NC1=O (stereo not given) get here?
Solution: 0.0

Problem: Here is the next compound: CCCCCCCCc1ccc(OCCOCC[N+](C)(C)CC)cc1 (tested in a mixture with another compound)
Solution: 0.0

Problem: Here is the next compound: "NC(N)=Nc1ccc(/C=C2\C=Cc3ccccc32)cc1"
Solution: 0.0

###

Test system: NCI-H226 lung
assay: NCI-60 one-dose screen, 48 h (100 = growth as untreated, 0 = no growth, -100 = all killed)
experimental-setup: 10 µM unless noted
The panel holds about 83,000 compounds, 20% with a hit somewhere; the sample as a whole holds those more often.
measure: growth (%)
Give the quantity in %, number only.

COCn1c(C(=O)OC)cc2oc(/C=C3/SC(=S)N(N)C3=O)cc21	115
CCc1c(C)c2ccc(OCC(=O)N=Nc3c(O)[nH]c4ccccc34)c(C)c2oc1=O	12.4
CC1(C)NC(=S)NC1=O	99.6
COc1ccc(Cn2cc3c(c2-c2ccc(O)cc2)CCc2cnoc2-3)cc1	24.1
Cc1ccc(CC(=O)O)c(C)c1	99.8
CCCCCCCCCCCCCCCC[n+]1cccc(C#N)c1	80.2

Problem: Any idea what its growth is? The compound is "CC(C)(C)c1ccc(OCCOC(=O)CBr)cc1"
Solution: 102

Problem: Here is the next compound: CCC(CCCN1C(=O)c2ccccc2C1=O)Nc1cc(OC)cc2c(C)ccnc12 (configuration not stated)
Solution: 88.2

###

Tested on: SK-MEL-2 melanoma
assay: NCI-60 one-dose screen, 48 h (100 = growth as untreated, 0 = no growth, -100 = all killed)
experimental-setup: 10 µM unless noted
About 83,000 compounds went through this panel and 20% of them were active in at least one assay; those are over-represented in the sample as a whole.
measure: growth (%)
Give the quantity in %, number only.

Some entries whose results are on file:
Cc1ccc(OCCn2ccc(=O)n(CCOc3ccc(Cl)cc3C(=O)c3cc(C)cc(C)c3)c2=O)cc1	41.2
COc1nc(OC)nc(-c2cc(-c3cc(OC)c(OC)c(OC)c3)no2)n1	108
O=C(CBr)OCc1ccc([N+](=O)[O-])o1	97.9

Problem: Any idea what its growth is? The compound is "CCOc1nc(-c2ccccc2)cc2c(O)c(C(=O)N/N=C/c3ccccc3O)[nH]c(=O)c12"
Solution: 61.3

Problem: Here is the next compound: "Nc1ccc(N=Nc2ccccc2)c2cc(S(=O)(=O)O)ccc12"
Solution: 91.1

###

System: HOP-92 NSCLC
assay: NCI-60 one-dose screen, 48 h (100 = growth as untreated, 0 = no growth, -100 = all killed)
experimental-setup: 10 µM
About 83,000 compounds went through this panel and 20% of them were active in at least one assay; those are over-represented in the sample as a whole.
measure: growth (%)
Give the quantity in %, number only.

Some entries whose results are on file:
COc1ccc2cnc(N)c(C#Cc3cc(C(=O)Nc4ccc(CN5CCN(C)CC5)c(C(F)(F)F)c4)cnc3C)c2c1	20.1
C/C=C(/C)C(=O)OC1C=C(CO)C(=O)C(OC(=O)C(C)(O)C(C)Cl)C1C(C)C (stereo not given)	-50.2
COC(=O)c1ccc2[nH]c(O)c(C(=Nc3ccc(N(C)C(=O)CN4CCN(C)CC4)cc3)c3ccc([N+](=O)[O-])cc3)c2c1	63.6
O=C(N/N=C\c1ccc(Cl)cc1)C(=O)N/N=C\c1ccc(Cl)cc1	92.3
Cc1sc(NC(=O)c2ccc(C(C)(C)C)cc2)c(C(=O)O)c1C	66.3

Problem: Any idea what its growth is? The molecule is "NNC(=O)CNc1ccc2ccccc2c1"
Solution: 70.4

Problem: Here is the next molecule: COc1cc2c(c(OC)c1OC)C(=O)CC(c1cccc(C(=O)Nc3cccc(Br)c3)c1)O2 (stereo not given)
Solution: 55.3

Problem: Here is the next molecule: "COc1nc(OC)nc(-c2cc(C(=O)c3ccc(Br)cc3)n3cc(C)cc(C)c23)n1"
Solution: 33.9

Problem: Here is the next molecule: "COc1ccc(Cn2cc3c(c2)-c2oncc2CC3)cc1OC"
Solution: 84.4

Problem: Here is the next molecule: "CC(=O)Nc1nc(C)c(C(=O)N/N=C/c2cccs2)s1"
Solution: 42.6

###

Tested on: SW-620 colon
assay: NCI-60 one-dose screen, 48 h
experimental-setup: 10 µM unless noted
Compounds without any hit were thinned out: in the full panel of roughly 83,000, 20% have a hit. Active and inactive are the calls of the source. Rule for the calls: active = growth percent below 10; inactive = the rest.
Would you mind answering with one of these outcomes? 1 (active), 0 (inactive)

Some entries whose results are on file:
O=C(O)CS(=O)c1ccc(Cl)cc1 (stereo unspecified)	0
O=C(N/N=C/c1coc2ccccc2c1=O)c1cc2oc(-c3ccccc3)cc2[nH]1	0
CCOc1ccc(N(C)c2ccc(/C=C/C3=[N+](C)c4ccccc4C3(C)C)cc2)cc1	1
CCS(=O)(=O)OCCO[C@H]1Cc2cc3ccc(=O)oc3cc2OC1(C)C	0
N#Cc1ccc(OCc2nc(N)nc(N)c2-c2ccc(Cl)c(Cl)c2)cc1	0

Problem: Just curious, what result did "Cc1ccccc1-n1c(C)nc2cc(NC(=O)c3ccc(Cl)cc3)ccc2c1=O" get here?
Solution: 0

Problem: Here is the next compound: "COc1cc(OC)c(/C=C/c2ccc3ccccc3[n+]2C)c(OC)c1"
Solution: 0

Problem: Here is the next compound: "O=C(Nc1ccc(Cl)c(Cl)c1)O/N=C\c1c(Cl)ccc([N+](=O)[O-])c1Cl"
Solution: 1

Problem: Here is the next compound: "O=C(CN1CCN(c2cccc(Cl)c2)CC1)N1CCN(c2nnc(-c3ccc(Cl)cc3)c(-c3ccc(Cl)cc3)n2)CC1"
Solution: 0

Problem: Here is the next compound: CCOC(=O)C1CCCN1C(=O)C1(NC(C)=O)CCCC1 (stereo unspecified)
Solution: 0

Problem: Here is the next compound: "CSc1nc(N)n2nccc2n1"
Solution: 0

Problem: Here is the next compound: "C=CCSc1nnc(COc2ccc3c(C)c(Cc4ccccc4)c(=O)oc3c2C)o1"
Solution: 0

Problem: Here is the next compound: "C[C@@H](c1ccc2c(c1)[nH]c1ccc(Cl)cc12)c1nc2ccc(Cl)cc2[nH]1"
Solution: 0

Problem: Here is the next compound: "CC(C)OC(=O)[C@H](C)N[P@@](=O)(OC[C@@]1(C)O[C@@H](n2cc(F)c(N)nc2=O)C[C@@H]1O[P@](=O)(N[C@@H](C)C(=O)OC(C)C)Oc1ccccc1)Oc1ccccc1"
Solution: 0

Problem: Here is the next compound: "CCOC(=O)c1c(C)oc2ncnc(Nc3ccc(NC(=O)Nc4ccc(CC)cc4)cc3)c12"
Solution: 0

Problem: Here is the next compound: "CC1=NN(c2cccc(Cl)c2)C(=O)/C1=C\c1cn(-c2nc(N3CCOCC3)nc(N3CCOCC3)n2)c2ccccc12"
Solution: 0

Problem: Here is the next compound: COc1cc(NC(C)CCCN)c2nccc(C)c2c1OC (stereo unspecified)
Solution: 0

Problem: Here is the next compound: CC1(C)CC(=O)C2=C(C1)Oc1nc(N)c(C#N)c(N)c1C2c1ccc(F)cc1 (stereo unspecified)
Solution: 0

Problem: Here is the next compound: "S=C(N/N=C/c1cc(Cl)cc(Cl)c1)NC12CC3CC(CC(C3)C1)C2"
Solution: 0

Problem: Here is the next compound: "CCOC(=O)/C(C#N)=C(/CC)OCC"
Solution: 0

Problem: Here is the next compound: "CCCC(=O)NNc1[nH]c(-c2ccc(OC)cc2)cc1C(=O)OCC"
Solution: 0

Problem: Here is the next compound: CCCCCCCCCCC(C[N+](C)(C)C/C=C/c1ccccc1)C(O)c1ccccc1 (stereo unspecified)
Solution: 1

Problem: Here is the next compound: "COc1cccc(Cn2cc3c(c2)-c2oncc2CC3)c1"
Solution: 0

Problem: Here is the next compound: "CC(=O)Nc1ccc(C(=O)/C=C/c2ccc(N(C)C)cc2)cc1"
Solution: 0

Problem: Here is the next compound: "Cc1sc(NC(=O)c2ccc(C(C)(C)C)cc2)c(C(=O)O)c1C"
Solution: 0

Problem: Here is the next compound: "CCN(CC)CCOC(=O)c1cccnc1"
Solution: 0

Problem: Here is the next compound: "Cc1nc2c(nnn2-c2ccccc2)c2nc(-c3ccc(Cl)cc3)oc(=O)c12"
Solution: 0
